Origin of values: PubChem BioAssay AID1159580

test: chemical genetic growth profiling, strain panel (AID 1159580);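 further: tested at 20 µM; growth read once vehicle control cultures reached saturation at 30 °C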; details: S. cerevisiae deletion strains, growth OD, locus YNL067W, strain RPL9B, hits give low values
The whole screen tested about 5,500 compounds, of which about 2,000 (36%) were called active. Not shown: some 18% with an inconclusive outcome. Some of the results follow.
# if measured normalized growth < 1: fulfilled  # else: not fulfilled

Lab note: normalized growth threshold 1. Does this compound come in strictly under it? CC(=O)[C@H]1CCC2C3CC=C4C[C@@H](O)CC[C@]4(C)C3CC[C@@]21C (stereo partly drawn) fulfilled

Dear colleague, could you confirm whether normalized growth of Cc1cc2cc3c(C)cc(=O)oc3c(C)c2o1 falls below 1? Thanks. fulfilled

normalized growth under 1? Item: CCCCCCc1ccc(O)cc1O fulfilled

Confirm or reject: normalized growth of CCCCCCCCCCCCCCCC[n+]1ccccc1 lies strictly below 1 fulfilled

API: query returns whether the compound falls strictly under 1 in normalized growth. Query: COc1ccc(C(=O)/C=C/c2ccccc2)cc1 fulfilled

Please check: normalized growth for COc1ccc(-c2cc(=O)c3c(OC)cccc3o2)cc1 , strictly under 1 or not? not fulfilled

Determine whether this compound shows normalized growth lower than 1 (ties excluded): COc1cc(O)c2c(=O)c(-c3ccc(O)cc3)coc2c1 fulfilled

Does this compound meet the criterion normalized growth < 1? COc1c(O)cccc1O fulfilled

Hi there! Is normalized growth for CN1CCc2c(c3ccccc3n2Cc2ccccc2)C1 below 1, do you know? fulfilled

State whether 1 exceeds normalized growth recorded for CN(N=O)C(=O)N[C@@H]1[C@@H](O)[C@H](O)[C@@H](CO)O[C@@H]1O . not fulfilled

Is normalized growth strictly under 1 for the entry O=c1c2ccccc2[se]n1-c1ccccc1 ? fulfilled

Determine whether this compound shows normalized growth lower than 1 (ties excluded): O=c1c(-c2ccc(O)cc2)coc2cc(O)cc(O)c12 not fulfilled

Determine if CC(C)Oc1ccc2c(=O)cc(-c3ccccc3)oc2c1 shows normalized growth strictly lower than 1. fulfilled

is_below(normalized growth, 1) for Cn1nnnc1SCC1=C(C(=O)O)N2C(=O)C(NC(=O)C(O)c3ccccc3)C2SC1 (stereo not drawn) ? not fulfilled

Could you please tell me whether normalized growth recorded for CSc1ccc2c(c1)C(N1CCN(C)CC1)Cc1ccccc1S2 (stereo not drawn) is less than 1? fulfilled

Bench note: check whether COc1ccc(-c2cc(=O)c3ccccc3o2)cc1 shows normalized growth below 1 fulfilled

Could you please tell me whether normalized growth recorded for CCCCCCCCCc1ccc(O)cc1 is less than 1? fulfilled
